# target: RET kinase V804M (Homo sapiens, UniProt P07949, V804M)
# Sequence (P07949 29-1114 V804M): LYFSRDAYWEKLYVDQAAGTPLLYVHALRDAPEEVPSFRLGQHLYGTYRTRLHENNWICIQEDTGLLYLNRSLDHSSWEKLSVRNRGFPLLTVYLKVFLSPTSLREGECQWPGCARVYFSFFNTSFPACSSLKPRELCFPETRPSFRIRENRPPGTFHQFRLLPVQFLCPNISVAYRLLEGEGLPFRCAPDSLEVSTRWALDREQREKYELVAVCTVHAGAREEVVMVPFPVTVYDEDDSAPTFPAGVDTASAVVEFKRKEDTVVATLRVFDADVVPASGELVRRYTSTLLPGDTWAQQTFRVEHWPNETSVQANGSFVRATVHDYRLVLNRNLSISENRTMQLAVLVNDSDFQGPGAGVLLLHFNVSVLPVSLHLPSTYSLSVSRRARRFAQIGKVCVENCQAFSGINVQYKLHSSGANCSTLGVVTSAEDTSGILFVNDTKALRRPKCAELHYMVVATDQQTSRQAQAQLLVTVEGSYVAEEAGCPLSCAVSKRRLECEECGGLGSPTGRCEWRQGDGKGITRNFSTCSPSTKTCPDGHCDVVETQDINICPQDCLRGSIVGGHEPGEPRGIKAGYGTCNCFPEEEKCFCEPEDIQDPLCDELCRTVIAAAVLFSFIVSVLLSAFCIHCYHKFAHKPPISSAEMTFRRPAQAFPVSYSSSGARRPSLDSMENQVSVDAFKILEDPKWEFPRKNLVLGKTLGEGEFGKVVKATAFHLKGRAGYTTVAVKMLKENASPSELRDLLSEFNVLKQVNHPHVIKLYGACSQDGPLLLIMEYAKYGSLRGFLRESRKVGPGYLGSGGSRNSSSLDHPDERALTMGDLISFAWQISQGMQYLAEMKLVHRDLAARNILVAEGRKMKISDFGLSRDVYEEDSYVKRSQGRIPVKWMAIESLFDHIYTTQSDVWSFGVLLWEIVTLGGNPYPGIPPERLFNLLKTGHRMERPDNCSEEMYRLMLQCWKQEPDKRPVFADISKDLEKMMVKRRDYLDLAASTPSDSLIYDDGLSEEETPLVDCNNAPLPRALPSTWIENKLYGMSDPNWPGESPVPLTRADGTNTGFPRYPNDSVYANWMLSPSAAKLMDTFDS
# assay comment: RET Enzyme Assay (CisBio HTRF KinEASE-TK), V804M
# Assay type: biochemical
# test conditions: read-out: RET V804M Enz FRET IC50
observed property: IC50 (µM)

Observe how each entry below is paired with its result.
> print(dat)
                                   compound  experimental.value
1  Nc1ncnc2c1c1c(n2C2CCCC2)CCC(O)c2c-1noc2C1CC1 (single isomer, unassigned) [Example 124]                0.08
2  CC(C)n1c2c(c3c(N)ncnc31)-c1cc3ccc(C(=O)NC4(C)CC4)cc3n1CCC2 [Example 97]                4.46
3  CC(C)n1c2c(c3c(N)ncnc31)-c1noc(C3CC3)c1C(O)CC2 (racemic) [Example 29]               0.026
4  Nc1ncnc2c1c1c(n2C(CF)CF)CC[C@H](O)c2c-1noc2C1CC1 (single isomer, unassigned) [Example 126]                0.03

I = CNC(=O)c1ccc2c(Cl)c3n(c2c1)C(=O)NCc1c-3c2c(N)ncnc2n1C(C)C [Example 74]
II = CC(C)n1c2c(c3c(N)ncnc31)-c1ccc(C3CC3)cc1C(=O)NC2 [Example 47]
Q: Thinking about recorded IC50 values, which is higher, I or II ? Field: selected label. Fill in the label of the entry you choose.
Result: II
(II: 9.37 µM, I: 6 µM)

====

# target: RET kinase V804M (Homo sapiens, UniProt P07949, V804M)
# assay comment: RET Enzyme Assay (CisBio HTRF KinEASE-TK), V804M
# Type: biochemical
# test conditions: read-out: RET V804M Enz FRET IC50
pIC50: −log10 of the molar value.
observed property: pIC50

Observe how each entry below is paired with its result.
> print(dat)
                                    compound  experimental.value
 1  CO[C@H]1CCc2c(c3c(N)ncnc3n2C(C)C)-c2noc(C3CC3)c21 (single isomer, unassigned)                6.13
 2  CC(C)n1c2c(c3c(N)ncnc31)-c1noc(C3CC3)c1[C@H](O)CC2 (single isomer, unassigned)                7.68
 3  Nc1ncnc2c1c1c(n2C2CCC2)CCC(O)c2c-1noc2C1CC1 (stereo not shown)                7.24
 4  Nc1ncnc2c1c1c(n2C2CCC(O)C2)CCC(=O)c2c-1noc2C1CC1 (mixture of isomers) [Example 128, 2,2,2-trifluoroacetate]                6.46
 5  CC(C)n1c2c(c3c(N)ncnc31)-c1noc(C3CC3)c1C(=O)N(C)C2                6.60
 6  CC(C)n1c2c(c3c(N)ncnc31)-c1noc(C3CC3)c1C(=O)N(C1CCN(Cc3ccccc3)C1)C2 (stereo not shown)                6.62
 7  CC(C)n1c2c(c3c(N)ncnc31)-c1noc(C3CC3)c1C=CC2                6.59
 8  Nc1ncnc2c1c1c(n2-c2ccccc2)CNC(=O)c2c-1noc2C1CC1 [Example 110, 2,2,2-trifluoroacetate]                5.76
 9  CC(C)n1c2c(c3c(N)ncnc31)-c1noc(C3CC3)c1CN(c1ccn(C)n1)C2                6.09
10  Nc1ncnc2c1c1c(n2C2CCCC2)CCC(O)c2c-1noc2C1CC1 (stereo not shown) [Example 120]                7.70

1 = CO[C@@H]1CCc2c(c3c(N)ncnc3n2C(C)C)-c2noc(C3CC3)c21 (single isomer, unassigned)
2 = Nc1ncnc2c1c1c(n2C2CCOC2)CCC(O)c2c-1noc2C1CC1 (stereo not shown)
3 = CC(C)n1c2c(c3c(N)ncnc31)-c1noc(C3CC3)c1[C@@H](O)[C@@H](C)C2 (relative stereo)
4 = CC1(n2c3c(c4c(N)ncnc42)-c2noc(C4CC4)c2C(O)CC3)CC1 (stereo not shown)
5 = CC(C)n1c2c(c3c(N)ncnc31)-c1noc(C3CC3)c1CN(C)C2
Q: Write the entries in order, lowest recorded pIC50 first. Please list the labels according to the requested order.
Result: 5, 3, 2, 1, 4

1 = CC(C)n1c2c(c3c(N)ncnc31)-c1noc(C3CC3)c1C(=O)OC2
2 = Nc1ncnc2c1c1c(n2C2CCCC2)CC[C@@H](O)c2c-1noc2C1CC1 (single isomer, unassigned)
Q: Thinking about recorded pIC50 values, which is higher, 1 or 2 ? Field: selected label. Fill in the label of the entry you choose.
Result: 2

I = Nc1ncnc2c1c1c(n2[C@@H]2C[C@@H](O)[C@@H](O)C2)CCC(O)c2c-1noc2C1CC1 (stereo partly shown)
II = CNC1CCc2c(c3c(N)ncnc3n2C(C)C)-c2noc(C3CC3)c21 (stereo not shown)
Q: Would you kindly point out which of I and II has the smaller pIC50 figure? Field: selected label. Fill in the label of the entry you choose.
Result: II
(II: 6.23, I: 7.19)

====

# target: HEK-293 cells expressing a Kif5b-RET fusion protein (Homo sapiens)
# Construct: KIF5B (N-terminal portion incl. coiled-coil); the other entry of the earlier key: KIF5B (P33176, Kinesin-1 heavy chain)
# Sequence (P07949 713-1063 limits assumed): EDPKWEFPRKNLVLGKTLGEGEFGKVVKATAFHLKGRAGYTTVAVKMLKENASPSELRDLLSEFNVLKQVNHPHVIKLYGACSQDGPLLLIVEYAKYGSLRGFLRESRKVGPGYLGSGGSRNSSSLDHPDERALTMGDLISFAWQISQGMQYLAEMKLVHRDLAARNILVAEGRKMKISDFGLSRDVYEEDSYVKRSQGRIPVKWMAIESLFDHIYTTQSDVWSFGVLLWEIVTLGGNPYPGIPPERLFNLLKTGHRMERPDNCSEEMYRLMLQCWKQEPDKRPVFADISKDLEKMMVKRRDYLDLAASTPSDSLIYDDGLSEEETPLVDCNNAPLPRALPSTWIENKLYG
# assay comment: RET Cell Assay (phospho-RET Tyr1062)
# test conditions: HEK-293 Kif5b-RET, 1 hour incubation, phospho-RET normalized to GAPDH; read-out: KIF5B-RET pTYR1062 Cell IC50
pIC50: −log10 of the molar value.
observed property: pIC50

Observe how each entry below is paired with its result.
> print(dat)
                                   molecule  experimental.value
1  CC(=O)Nc1ccc2cc3n(c2c1)CCCc1c-3c2c(N)ncnc2n1C(C)C [Example 139]                7.80
2  CC(C)n1c2c(c3c(N)ncnc31)-c1noc(C3CC3)c1C(=O)N(C)C2 [Example 20]                7.55
3  CC(C)n1c2c(c3c(N)ncnc31)-c1cc3ccc(C(=O)Nc4ccccn4)cc3n1CCC2 [Example 90]                6.65
4  Nc1ncnc2c1c1c(n2C2CCC(O)C2)CCC(=O)c2c-1noc2C1CC1 (mixture of isomers) [Example 128, 2,2,2-trifluoroacetate]                6.80
5  Cc1ccc2c(c1)cc1n2C(=O)NCc2c-1c1c(N)ncnc1n2C(C)C [Example 81]                7.96
6  Nc1ncnc2c1c1c(n2C2CCCC2)CC[C@@H](O)c2c-1noc2C1CC1 (single isomer, unassigned) [Example 125]                8.15

1 = C[C@H](n1c2c(c3c(N)ncnc31)-c1noc(C3CC3)c1[C@H](O)CC2)C(F)(F)F (single isomer, unassigned) [Example 145]
2 = CO[C@@H]1CCc2c(c3c(N)ncnc3n2C2(C)CC2)-c2noc(C3CC3)c21 [Example 151]
3 = CC(C)n1c2c(c3c(N)ncnc31)-c1ccc(C3CC3)cc1C(=O)NC2 [Example 47]
4 = CC1(n2c3c(c4c(N)ncnc42)-c2noc(C4CC4)c2C(O)CC3)CC1 (stereo not shown) [Example 149]
5 = CC1Cc2c(c3c(N)ncnc3n2C(C)C)-c2noc(C3CC3)c2C1O (stereo not shown) [Example 61]
Q: Task field, ranking: reported pIC50, descending order. Please list the labels according to the requested order.
Result: 4, 2, 5, 1, 3
(4: 8.70, 2: 7.85, 5: 7.48, 1: 7.14, 3: 6.87)

P = CC(C)n1c2c(c3c(N)ncnc31)-c1noc(C3CC3)c1S(=O)(=O)N(C)C2 [Example 22]
Q = COC(=O)c1ccc(-n2c3c(c4c(N)ncnc42)-c2noc(C4CC4)c2C(O)CC3)cc1 (stereo not shown) [Example 113, 2,2,2-trifluoroacetate]
Q: Would you kindly point out which of P and Q has the smaller pIC50 figure? Field: selected label. Fill in the label of the entry you choose.
Result: Q
(Q: 6.29, P: 7.19)

====

# target: HEK-293 cells expressing a G810S mutant RET Kif5b-RET fusion protein (Homo sapiens, UniProt P07949, G810S)
# Construct: KIF5B (N-terminal portion incl. coiled-coil)
# Sequence (P07949 713-1063 G810S limits assumed): as the sequence (P07949 713-1063 limits assumed) above, with G98S counted along it
# assay comment: RET G810S Mutant Cell Assay (phospho-RET Tyr1062)
# test conditions: HEK-293 Kif5b-RET G810S, 1 hour incubation, phospho-RET normalized to GAPDH
observed property: IC50 (nM)

molecule	IC50 (nM)
COC(=O)[C@H]1C[C@@H](n2c3c(c4c(N)ncnc42)-c2noc(C4CC4)c2C(O)CC3)C1 (stereo partly shown) [Example 137]	280

1 = CC(C)n1c2c(c3c(N)ncnc31)-c1noc(C3CC3)c1[C@@H](O)CC2 (single isomer, unassigned) [Example 54]
2 = Nc1ncnc2c1c1c(n2C2CCCC2)CCC(O)c2c-1noc2C1CC1 (stereo not shown) [Example 120]
Q: Would you kindly point out which of 1 and 2 has the smaller IC50 figure? Field: selected label. Fill in the label of the entry you choose.
Result: 2
(2: 33 nM, 1: 92 nM)

I = CC(n1c2c(c3c(N)ncnc31)-c1noc(C3CC3)c1C(O)CC2)C(F)(F)F (stereo not shown) [Example 131]
II = CC1Cc2c(c3c(N)ncnc3n2C(C)C)-c2noc(C3CC3)c2C1O (stereo not shown) [Example 61]
III = CC1(n2c3c(c4c(N)ncnc42)-c2noc(C4CC4)c2[C@H](O)CC3)CC1 [Example 150]
Q: Write the entries in order, lowest recorded IC50 first. Please list the labels according to the requested order.
Result: III, I, II
(III: 18 nM, I: 60 nM, II: 101 nM)

A = Nc1ncnc2c1c1c(n2C(CF)CF)CC[C@@H](O)c2c-1noc2C1CC1 (single isomer, unassigned) [Example 127]
B = Nc1ncnc2c1c1c(n2[C@@H]2C[C@@H](O)[C@@H](O)C2)CCC(O)c2c-1noc2C1CC1 (stereo partly shown) [Example 130]
Q: Thinking about recorded IC50 values, which is higher, A or B ? Field: selected label. Fill in the label of the entry you choose.
Result: B
